# System: NCI-H23 lung
# Protocol summary: NCI-60 one-dose screen, 48 h (100 = growth as untreated, 0 = no growth, -100 = all killed)
# Particulars: 10 µM unless noted
About 83,000 compounds went through this panel and 20% of them were active in at least one assay; those are over-represented in the sample as a whole.
Quantity: growth (%)
State just the number; it will be interpreted in %.

O=S(=O)(O)c1cccnc1 = 115
CC(C)C1CCC(C)C(O)C1 (configuration not stated) = 110
COc1cc(OC)c(NC(=O)C(Sc2nc(C)cc(C)c2C#N)c2ccccc2)cc1Cl (configuration not stated) = 96.6
O=C(Oc1ccccc1Cl)c1ccc(Cl)cc1Cl = 101
NNc1ncccn1 = 98.4
COc1cc2c(c(OC)c1OC)-c1ccc(SC)c(=O)cc1[C@@H](NC1OC(CO)C(O)C(O)C1O)CC2 (some centres not stated) = 29.9
OCC(O)COc1ccc(Cl)cc1Cl (configuration not stated) = 105
CC(C)OCC(CCl)OC(=O)Nc1ccccc1 (configuration not stated) = 93

Query :: Need growth of `C=C(C)[C@@H]1CC[C@]2(CO)CC[C@]3(C)[C@H](CC[C@@H]4[C@@]5(C)CC[C@H](O)C(C)(C)[C@@H]5CC[C@]43C)[C@@H]12` , thanks.
Result :: 25.9

Query :: Name the recorded growth for C=CC(C)C(C)(C)O (configuration not stated) .
Result :: 108

Query :: Recorded growth for O=c1n(CC2CO2)c(=O)n(CC2CO2)n1CC1CO1 (configuration not stated) , please?
Result :: 55.2

Query :: Item under review: `CCOC(C=O)OCC` . Reported growth?
Result :: 99

* * *

Catalogue of growth values
# System: SNB-75 CNS
# Protocol summary: NCI-60 one-dose screen, 48 h (100 = growth as untreated, 0 = no growth, -100 = all killed)
# Particulars: 10 µM unless noted
# Experimental: Growth inhibition of the SNB-75 human tumor cell line is measured as a screen for anti-cancer activity. Cells are grown in 96 well plates and exposed to the test compound for 48 hours. Compounds are tested at a single concentration, which is 10^-5 M for most compounds. The reported endpoint is percent growth (GI% or GIPRCNT), where numbers from 0 - 100% represent growth inhibition, and numbers from -100% - 0 represent cell death. For example, a value of 40 represents 60% growth inhibition. […]
About 83,000 compounds went through this panel and 20% of them were active in at least one assay; those are over-represented in the sample as a whole.
# value in %; strip the unit string

Solved entries:
CC(C)(C)[Si](C)(C)OCC1OC(n2cnc3c(N)ncnc32)CC1OS(C)(=O)=O (stereo not drawn) = 97.4
CCCCCC#CC(=O)O = 99.7

Okay, now this compound:
Query :: So what growth did `Cc1c(-c2ccc(C3CCCCC3)cc2)nc2ccc(F)cc2c1C(=O)O` get with SNB-75 CNS?
Result :: 62.7

* * *

# Tested on: UACC-62 melanoma
# Protocol summary: NCI-60 one-dose screen, 48 h (100 = growth as untreated, 0 = no growth, -100 = all killed)
# Particulars: 10 µM unless noted
This is part of a sample that, as a whole, favours compounds with a hit. Of some 83,000 tested, about 20% had one in any assay.
Each item that follows carries a reported growth.
Provide only the numeric value, understood in %.

Query :: Which measured growth value corresponds to `NNC(=O)CCCCl` ?
Result :: 103

Query :: Please report the recorded growth for `S=CN1CCCCC1` .
Result :: 106

Query :: For the molecule CC(C)OCC(CCl)OC(=O)Nc1ccccc1 (centres undefined) , what growth is on record?
Result :: 101

Query :: Give its growth value. Item: O=C1NC(=O)C(c2ccccc2)O1 (centres undefined)
Result :: 105

Query :: May I ask what growth has been recorded for `CC1=CC(=Nc2ccc(N(C)C)cc2)C=C(C)C1=O` ?
Result :: 37.7

* * *

# Test system: M14 melanoma
# Protocol summary: NCI-60 one-dose screen, 48 h (100 = growth as untreated, 0 = no growth, -100 = all killed)
# Particulars: 10 µM unless noted
Compounds without any hit were thinned out: in the full panel of roughly 83,000, 20% have a hit.
Quantity: growth (%)
Give the value in % but do not write % after it.

Observe how each entry below is paired with its result.
Cc1cc(C)cc(OCC(=O)O)c1 = 102
C=CC(=O)OC1CCC(C(C)(C)CC)CC1 (centres undefined) = 107
CCc1ccccc1C(=O)N(CC)CC = 103
CC(=O)NC(CCC(=O)c1ccccc1)C(=O)O (centres undefined) = 90.9
N#CC1(O)CCCCC1 = 95.7
CC(C)C1CCC(C)C(O)C1 (centres undefined) = 101
O=C(O)c1c[nH]c2ccccc2c1=O = 101
COC(=O)Cc1cc(COC(C)=O)ccc1C = 106
COc1cc(-c2ccc(NC(=O)CC(C)=O)c(OC)c2)ccc1NC(=O)CC(C)=O = 104
CC(=O)NCNC(C)=O = 111

Query :: Report growth for `COc1cc(N)c2ncccc2c1Cl` please.
Result :: 103

Query :: Return reported growth; argument: `C=C(C)COc1ccc(C(C)(C)C)cc1`
Result :: 102

Query :: Requested field: growth. Item: `Cn1c(=O)c2nc3c(=O)n(C)c(=O)n(C)c3nc2n(C)c1=O`
Result :: 97

Query :: Please report the recorded growth for ClCC(Cl)C1CCC(Cl)C(Cl)C1 (centres undefined) .
Result :: 101

* * *

# System: OVCAR-4 ovarian
# Protocol summary: NCI-60 one-dose screen, 48 h
# Particulars: 10 µM unless noted
This is part of a sample that, as a whole, favours compounds with a hit. Of some 83,000 tested, about 20% had one in any assay. The source made the active and inactive calls. Rule for the calls: active = growth percent below 10; inactive = the rest.
Could you please pick one outcome from this set? active, inactive

CC(C)(N)CO[C@H]1C[C@H]2CC[C@@]1(C)C2(C)C = inactive
CCOC(=O)/C(O)=C(\C=N\C(=S)Nc1ccc(Cl)c(Cl)c1)C(=O)OCC = inactive
CC(=O)N(CCCCCCN(C(C)=O)C(C)=O)C(C)=O = inactive
Cc1cc(CO)c(O)c(CO)c1 = inactive
Cc1ccc(Cc2ccc(C)cc2)cc1 = inactive

Query :: How did this test come out for C=CCC(OC(C)=O)c1ccc(C(C)C)cc1 (stereo unspecified) ?
Result :: inactive

Query :: Could you check what this test reported for `ON1CCCC1` ?
Result :: inactive

* * *

# System: HOP-92 NSCLC
# Protocol summary: NCI-60 one-dose screen, 48 h
# Particulars: 10 µM unless noted
The panel holds about 83,000 compounds, 20% with a hit somewhere; the sample as a whole holds those more often. The source made the active and inactive calls. How the source made its calls: active means growth percent below 10; inactive means the rest.
Please state which outcome applies, choosing from active, inactive

Please review the following examples before continuing.
CC1CCC(C(C)(C)[N+](C)(C)C)CC1 (configuration not stated) = inactive
Cc1ccc(S(=O)(=O)CCCl)cc1 = inactive
O=C(Nc1ccccc1)c1ccco1 = inactive

Query :: Kindly provide the recorded test outcome for the following compound: COc1ccc(C2CCCCC2=O)cc1 (configuration not stated)
Result :: inactive

Query :: Any idea what this test logged for `CCOP(=O)(NC(c1ccccc1)c1ccccc1)OCC` ?
Result :: inactive

Query :: # lookup: test call for Nc1ncnc2c1ncn2C1OC(CO)C2OC21 (configuration not stated)
Result :: inactive

Query :: Give the logged outcome of this assay for the following compound: `O=C(OC1CCCC1)c1ccccc1Cl`
Result :: inactive

Query :: Short answer needed: outcome of this test for `CC(C)(CC(=O)O)CC(=O)O` ?
Result :: inactive

Query :: // return assay outcome for CC(=O)OCC1OC(n2cnc3c(=S)nc(N)[nH]c32)C(OC(C)=O)C1OC(C)=O (configuration not stated)
Result :: inactive

Query :: What did this assay record as the result for `Cc1c(-c2ccc(C3CCCCC3)cc2)nc2ccc(F)cc2c1C(=O)O` ?
Result :: inactive

Query :: Identify the outcome logged in this assay for the compound shown: `NC(=O)NCCO`
Result :: inactive

* * *

List of growth values.
# System: ACHN renal
# Protocol summary: NCI-60 one-dose screen, 48 h (100 = growth as untreated, 0 = no growth, -100 = all killed)
# Particulars: 10 µM unless noted
# Description: Growth inhibition of the ACHN human tumor cell line is measured as a screen for anti-cancer activity. Cells are grown in 96 well plates and exposed to the test compound for 48 hours. Compounds are tested at a single concentration, which is 10^-5 M for most compounds. The reported endpoint is percent growth (GI% or GIPRCNT), where numbers from 0 - 100% represent growth inhibition, and numbers from -100% - 0 represent cell death. For example, a value of 40 represents 60% growth inhibition. […]
This is part of a sample that, as a whole, favours compounds with a hit. Of some 83,000 tested, about 20% had one in any assay. Active and inactive are the calls of the source. Rule for the calls: active = growth percent below 10; inactive = the rest.

NC(=S)N/N=C/c1ccc(OC(=O)COc2ccccc2)cn1 = 8.03% (active)

Query :: Quick check: growth of `CC(CCC#N)(CCC#N)C(=O)c1ccccc1` ?
Result :: 114% (inactive)

Query :: Quick one: growth for `CC(=O)Oc1c(Cl)cccc1-c1ccccc1` ?
Result :: 108% (inactive)

Query :: Recorded growth for `O=C1Nc2ccccc2/C1=C\c1ccccc1O` , please?
Result :: 85.4% (inactive)

Query :: Recorded growth of `OCCNc1ccccc1` , please.
Result :: 108% (inactive)

Query :: Looking for the measured growth of `Nc1nc(Cl)cc(Cl)n1` , can you help?
Result :: 105% (inactive)

Query :: Please look up its growth: CC(=O)OC(C)c1cccc(C#N)c1 (stereo not given)
Result :: 113% (inactive)

Query :: Quick check: growth of `CC(CO)(CO)C(=O)O` ?
Result :: 103% (inactive)

Query :: Using the record for CCC1CCC(C)NC1 (stereo not given) , report its growth.
Result :: 102% (inactive)

Query :: What value of measured growth is listed for `Cc1cc(C(=O)c2ccccc2)cc(C)c1O` ?
Result :: 99.8% (inactive)

Query :: Given O=C(OCC1CCCO1)c1ccc([N+](=O)[O-])cc1 (stereo not given) , state its recorded growth.
Result :: 104% (inactive)

Query :: Could you tell me which growth is on file for `CC1(C)OC(=O)CC1=O` ?
Result :: 101% (inactive)

Query :: Given the entry `O=C(O)c1cc(I)ccc1O` , report its measured growth.
Result :: 97.6% (inactive)

Query :: growth lookup needed for `C=C(OC(C)=O)c1ccccc1` , thanks.
Result :: 115% (inactive)

Query :: Which growth is listed for C=C1C(=O)C2CCC1C2 (stereo not given) ?
Result :: 112% (inactive)
